experiment-notes: yeast display, Sf9 membrane polyspecificity reagent, FACS + sequencing; frameworks hold sequencing errors
metric: polyreactivity (PSR sort gate)

Use these answered entries as a reference point.
QVQLVESGGGLVQAGGSLRLTSAASGRTFGTNPMGWYRQETGKERELVDAISRRGGSTYYADSVKARFTISRDNAKNTVNLQMNSLKPEDTAVYYCAKTIGLKHEDEYWGQGTQVTVSS	low polyreactivity
QVQLVESGGGLVQAGGSLRLSCAASGSIFKIYAMGWYRQAPGKERELVASITGSGGSTYYADSVKGRFTISRDNAKNTVYLQMNSLKPEDTAVYYCIADGPLDRYEYWGQGTQVTVSS	low polyreactivity
QVQLVESGGGLVQAGGSLRISCAASGPTFGYNGMGWYRQAPGKERELVAAINSGGNTNYADSVKGRFTISRDNAKYTVDFQLNSLKPEDTAVYYCAKYGTLYEPVPNEYDYWGQGTQVTVSS	low polyreactivity
QVQLVESGGGLVQAGGSLRLSCAASGRIFNPYAMGWYRKAPGKERELVAAISRGGRTYYADSVKGRFTISRDNAKNTVYLQMNSLKPEDTAVYYCAKLPSRRWAYDYWGQGTQVTVSS	high polyreactivity
QVQLLESGGGLVQAGGSLRLSCAASGFNFYRYAMGWYRQAPGKERELVAAIRKSGGSTYYADSVKGRFTISRDNAKNTVYCQMNSLKPEDTAVSYCAKRYATDGFGYWGQGTQVSVSS	high polyreactivity
QVQLVESGGGLVQEGGSLRLSCAASGFTFYWYAMGWYRQAPGKERELVAAITRSGSSTYYADSVKGRFTISRDNAKNTVYLQMNSLKPEDTEVYYCAALPYKPYYDAYDYWGQGTQVTVSS	high polyreactivity
QFQLVESGGGLVHAGGRLRLSCAASGITFVTYAMGWYRQAPGKERELVAAISRSGGRPYYADSVKGRFTISRDNATNTDYLQMNSLKPEDTAVYYCAAERKNKYDYWGQGTQVTVSS	high polyreactivity
QVQLVDSGGGLVQAGGILRLSCAASGSIFSSYAMGWYRQAPGKERELVAAITSGGSTYYADSVKGRFTISRDNAKITVYLQMNSLKREDTAVYYCAAYLSYFGYDYWGQGTQVTVSS	low polyreactivity
QVQLVESGGGLVQAGGSLRLSCAASGFIFRVYAMGWYRQAPGKERELVAAISDSGGSTTYADSVKGRFTISRDNAKNTVYLQMNSLKPEDTAVYYCAADYDFFSLYLYDYWGQGTQVTVSS	low polyreactivity
QVQLVESGGGLVQAGGSLRVSCAASGSTFYYNAMGWYRQATGKERELVAAITRSAGSTYYADSVKGRFTISRDNAKNTVYLQMNSLKPEDTAVYYCNARYSFYGSYWTSGKYDYWGQGTQVTVSS	high polyreactivity

Could you now look at the following sequence, please?
Query block: What does the data say about its polyreactivity (PSR sort gate)? Entry: `QVQLEESGGGLVQAGGSLRLSCAASGRLFGDNAMGWYSQAPGKERELVAAISDSGGSTYYADSVKGRFTISRDNAKNTVYLQMNSLKPEDTAVYYCAAEYIVRWYWYYYWGQGTQVTVSS`
Result block: high polyreactivity

###

experiment-notes: yeast display, Sf9 membrane polyspecificity reagent, FACS + sequencing; frameworks hold sequencing errors
metric: polyreactivity (PSR sort gate)

QVQLVESGGGLVQAGGSLRLSCAASGSIFSYNAMGWYRQAHGKERELVAAIRASGGSTYYADSVKGRFTISRDNAKNTVYLQMNSLKPEDTAVYYCAARGYGWGQGTQVTVSS	high polyreactivity
QVQLVESGGGLVQAGGRLRLSCAASGFIFSNYAMGWYRQAPGKERELVAAISKSGGGTSYADSVKGRFTISRDTAMNTVYLQMNSLKPEDPAGYYCAARVRQIRVDYWGQGTQVTVSS	high polyreactivity
QVQLVESGGGLVQAGGRLRLSCAASGSTFYWNTMGWYIQAPGKERELVAAISRRGGSTYYADSEKGRFTISRDNAKNTVYLQMNSLKPEETAVYYCNKLLSQRRYHSEMDYWGQGTQVTVSS	high polyreactivity
QVQLVESGGGLVQAGGSLRLSCAASGRTFYAYAMGWYRQAPGKERELVAAISWRGGRTYYADSVKGRFTISRDNAKNTVYLQMNSLKPEDTAVYYCAAEYSYGFDYWGQGTQVTVSS	high polyreactivity
